test: Solubility at pH 1.2; type: physicochemical; conditions: buffer
READOUT: solubility (µg/mL)
Answer format: numeric, µg/mL implied, no suffix.

Sample `Cc1cc(OC[P@@]2(=O)OCC[C@@H](c3cccnc3C)O2)c2c(c1C)Cc1scnc1-2` — what was its solubility? 88

---
Sample Cc1cc(OC[P@@]2(=O)OCC[C@@H](c3ccc(Cl)cc3)O2)c2c(c1C)Cc1scnc1-2 (racemic) — what was its solubility? 4.4

Sample Cc1cc(OC[P@@]2(=O)OCC[C@@H](c3cccnc3)O2)c2c(c1C)Cc1scnc1-2 (racemic) — what was its solubility? 86

Sample Cc1cc(OC[P@]2(=O)OCC[C@H](c3cccnc3C)O2)c2c(c1C)Cc1scnc1-2 (racemic) — what was its solubility? 87

###

test: Solubility at pH 1.2; assay type: physicochemical; settings: buffer
READOUT: solubility (µg/mL)
Answer format: numeric, µg/mL implied, no suffix.

Field: example entries. Status: answers known.
Sample `CCOC(=O)[C@H](C)NP(=O)(COc1cc(C)c(C)c2c1-c1ncsc1C2)N[C@@H](C)C(=O)OCC` — what was its solubility? 27

Sample Cc1cc(OC[P@@]2(=O)OCC[C@@H](c3ccccn3)O2)c2c(c1C)Cc1scnc1-2 (racemic) — what was its solubility? 86

Sample Cc1cc(OC[P@@]2(=O)OCC[C@@H](c3ccncc3)O2)c2c(c1C)Cc1scnc1-2 (racemic) — what was its solubility? 88

Sample `Cc1cc(OC[P@@]2(=O)OCC[C@@H](c3cccc(Cl)c3)O2)c2c(c1C)Cc1scnc1-2` — what was its solubility? 19

Read the next record carefully.
Sample COc1cccc([C@@H]2CCO[P@](=O)(COc3cc(C)c(C)c4c3-c3ncsc3C4)O2)c1 (racemic) — what was its solubility? 17

###

assay: Solubility at pH 6.8; type: physicochemical; conditions: buffer
Some molecules, each annotated with its measured solubility.

Sample `Cc1cc(OC[P@@]2(=O)OCC[C@@H](c3cccnc3C)O2)c2c(c1C)Cc1scnc1-2` — what was its solubility? 84 µg/mL

Sample Cc1cc(OC[P@@]2(=O)OCC[C@@H](c3ccc(Cl)cc3)O2)c2c(c1C)Cc1scnc1-2 (racemic) — what was its solubility? < 0.5 µg/mL

Sample `Cc1cc(OC[P@@]2(=O)OCC[C@@H](c3cccc(Cl)c3)O2)c2c(c1C)Cc1scnc1-2` — what was its solubility? < 0.5 µg/mL

Sample COc1cccc([C@@H]2CCO[P@@](=O)(COc3cc(C)c(C)c4c3-c3ncsc3C4)O2)c1 (racemic) — what was its solubility? < 0.5 µg/mL

Read the next record carefully.
Sample Cc1cc(OC[P@]2(=O)OCC[C@@H](c3ccc(Cl)cc3)O2)c2c(c1C)Cc1scnc1-2 (racemic) — what was its solubility? < 0.5 µg/mL

###

Some compounds, each annotated with its measured solubility.
assay: Solubility at pH 1.2; type: physicochemical; details: buffer

Field: example entries. Status: answers known.
Sample Cc1ccncc1[C@@H]1CCO[P@](=O)(COc2cc(C)c(C)c3c2-c2ncsc2C3)O1 (racemic) — what was its solubility? > 100 µg/mL

Sample Cc1cc(OC[P@]2(=O)OCC[C@@H](c3ccc(Cl)cc3)O2)c2c(c1C)Cc1scnc1-2 (racemic) — what was its solubility? < 0.5 µg/mL

---
Sample COc1cccc([C@@H]2CCO[P@@](=O)(COc3cc(C)c(C)c4c3-c3ncsc3C4)O2)c1 (racemic) — what was its solubility? < 0.5 µg/mL

Sample `Cc1cc(OC[P@]2(=O)OCC[C@@H](c3cccc(Cl)c3)O2)c2c(c1C)Cc1scnc1-2` — what was its solubility? < 0.5 µg/mL
